Kdis (pH 7.4) ÷ Kdis, Ab No. 245.1 (pH 7.4) values by entry
- ASSAYED_TARGET: T1, VISTA-His ECD (Sino Biological 13482-H08H) (human, UniProt Q9H7M9 33-194)
- T1 construct: Bought protein; also called VISTA-ECD; not shown: His tag
- ASSAY_NAME: BLI (Octet K2), ratio of off-rates at pH 7.4 to control Ab No. 245.1
Numeric only. Scale: s⁻¹

1) Antibody No. 474.1 with VL Y31H, VH Y32H, VH Y52H (antibody, V domains shown) VH: QVQLQESGPGLVKPSETLSLTCTVSGGSISSHYWSWIRQPPGKGLEWIGYIHYSGSTNYNPSLKSRVTISVDTSKSQFSLKLSSVTAADTAVYYCARDIPAFAFDIWGQGTMVIVSS VL: EIVLTQSPATLSLSPGERATLSCRASQSVSHYLAWYQQKPGQAPRLLIYDAFNRATGIPARFSGSGSGTDFTLTISSLEPEDFAVYYCQQRINWPLTFGGGTKVEIK; 61

// moving on: another record for Kdis (pH 7.4) ÷ Kdis, Ab No. 245.1 (pH 7.4)
State its Kdis (pH 7.4) ÷ Kdis, Ab No. 245.1 (pH 7.4) for this binder: Antibody No. 474.1 with VL Y32H, VH Y32H (antibody, V domains shown) VH: QVQLQESGPGLVKPSETLSLTCTVSGGSISSHYWSWIRQPPGKGLEWIGYIYYSGSTNYNPSLKSRVTISVDTSKSQFSLKLSSVTAADTAVYYCARDIPAFAFDIWGQGTMVIVSS VL: EIVLTQSPATLSLSPGERATLSCRASQSVSYHLAWYQQKPGQAPRLLIYDAFNRATGIPARFSGSGSGTDFTLTISSLEPEDFAVYYCQQRINWPLTFGGGTKVEIK 15

Source listed as patent US20240132593A1.
